measurementProtocol: Estimated solubility of the salt in organic solvents
Assay type: physicochemical
conditionNotes: organic solvent or mixture, solvent ethanol, read-out: estimated solubility of the salt in ethanol
metric: solubility (mg/mL)
Give your result in mg/mL as a bare value.

Data request, read-out solubility, for CC(=O)Nc1ccc(O)cc1OC[C@@](C)(O)CNC1CCN(Cc2ccc(Cl)cc2)CC1 [Form A]
16

----------
assaySystem: UniProt P32246
Sequence (P32246 whole entry): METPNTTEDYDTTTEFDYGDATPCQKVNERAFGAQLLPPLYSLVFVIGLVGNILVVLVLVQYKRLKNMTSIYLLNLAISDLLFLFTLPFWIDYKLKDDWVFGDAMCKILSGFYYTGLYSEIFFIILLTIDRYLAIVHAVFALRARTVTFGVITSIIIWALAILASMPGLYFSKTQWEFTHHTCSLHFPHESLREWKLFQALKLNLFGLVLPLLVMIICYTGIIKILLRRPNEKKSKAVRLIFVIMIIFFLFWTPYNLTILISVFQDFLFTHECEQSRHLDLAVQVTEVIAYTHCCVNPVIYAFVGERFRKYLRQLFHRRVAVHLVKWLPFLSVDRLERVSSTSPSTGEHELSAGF
metric: IC50

Data request, read-out IC50, for CC(=O)Nc1ccc(O)cc1OC[C@@](C)(O)CNC1CCN(Cc2ccc(Cl)cc2)CC1 [ditrifluoroacetate]
< 50 nM

----------
measurementProtocol: Estimated solubility of the salt in organic solvents
Type: physicochemical
conditionNotes: organic solvent or mixture, solvent 2-butanol, read-out: estimated solubility of the salt in 2-butanol
metric: solubility (µg/mL)
Give your result in µg/mL as a bare value.

Data request, read-out solubility, for CC(=O)Nc1ccc(O)cc1OC[C@@](C)(O)CNC1CCN(Cc2ccc(Cl)cc2)CC1 [Form A]
8000
